- procedureSummary: Toxicokinetics: plasma DAC by LC-MS/MS after oral gavage
- Type: in vivo, CD-1 mice
- details: female, CD-1, mouse, plasma, po, 0.4 mg/kg, Cmax, females; THU/DAC 167/0.4 mg/kg; Day 58
assayReadout: Cmax (nM)
Number only, in nM; omit the unit.

## Task I have this molecule here, "Nc1ncn([C@H]2C[C@H](O)[C@@H](CO)O2)c(=O)n1" , and I need its recorded Cmax.
## Result 1650

---

- procedureSummary: Toxicokinetics: plasma DAC by LC-MS/MS after oral gavage
- Format: in vivo, CD-1 mice
- details: female, CD-1, mouse, plasma, po, 1 mg/kg, Cmax, females; THU/DAC 0/1.0 mg/kg; Day 58
assayReadout: Cmax
Note to self: number, then unit, no commentary.

## Task I have this compound here, Nc1ncn([C@H]2C[C@H](O)[C@@H](CO)O2)c(=O)n1 [DAC, 5-aza-2’-deoxycytidine] , and I need its recorded Cmax.
## Result 1230 nM

---

- procedureSummary: Toxicokinetics: plasma DAC by LC-MS/MS after oral gavage
- Type: in vivo, CD-1 mice
- details: male, CD-1, mouse, plasma, po, 1 mg/kg, Cmax, males; THU/DAC 0/1.0 mg/kg; Day 1
assayReadout: Cmax (nM)
Number only, in nM; omit the unit.

## Task I have this molecule here, Nc1ncn([C@H]2C[C@H](O)[C@@H](CO)O2)c(=O)n1 [DAC, 5-aza-2’-deoxycytidine] , and I need its recorded Cmax.
## Result 1750

---

- procedureSummary: Toxicokinetics: plasma DAC by LC-MS/MS after oral gavage
- Format: in vivo, CD-1 mice
- details: male, CD-1, mouse, plasma, po, 0.4 mg/kg, Cmax, males; THU/DAC 167/0.4 mg/kg; Day 1
assayReadout: Cmax (nM)
Number only, in nM; omit the unit.

## Task I have this compound here, Nc1ncn([C@H]2C[C@H](O)[C@@H](CO)O2)c(=O)n1 [DAC, 5-aza-2’-deoxycytidine] , and I need its recorded Cmax.
## Result 2620

---

- procedureSummary: Toxicokinetics: plasma DAC by LC-MS/MS after oral gavage
- Type: in vivo, CD-1 mice
- details: male, CD-1, mouse, plasma, po, 0.2 mg/kg, Cmax, males; THU/DAC 167/0.2 mg/kg; Day 1
assayReadout: Cmax (nM)
Number only, in nM; omit the unit.

## Task I have this compound here, "Nc1ncn([C@H]2C[C@H](O)[C@@H](CO)O2)c(=O)n1" , and I need its recorded Cmax.
## Result 1180

---

- procedureSummary: Toxicokinetics: plasma DAC by LC-MS/MS after oral gavage
- Format: in vivo, CD-1 mice
- details: male, CD-1, mouse, plasma, po, 0.4 mg/kg, Cmax, males; THU/DAC 167/0.4 mg/kg; Day 58
assayReadout: Cmax

## Task I have this compound here, "Nc1ncn([C@H]2C[C@H](O)[C@@H](CO)O2)c(=O)n1" , and I need its recorded Cmax.
## Result 980 nM

---

- procedureSummary: Toxicokinetics: plasma DAC by LC-MS/MS after oral gavage
- Assay type: in vivo, CD-1 mice
- details: female, CD-1, mouse, plasma, po, 0.2 mg/kg, Cmax, females; THU/DAC 167/0.2 mg/kg; Day 58
assayReadout: Cmax (nM)
Number only, in nM; omit the unit.

## Task I have this compound here, Nc1ncn([C@H]2C[C@H](O)[C@@H](CO)O2)c(=O)n1 [DAC, 5-aza-2’-deoxycytidine] , and I need its recorded Cmax.
## Result 960
